Parameter MIC, tested on Haemophilus influenzae ATCC 10211, listed per item.
One number for each entry, in µg/mL.

# smiles structure, MIC (µg/mL)
rows = [
    ("CC[C@H]1OC(=O)[C@H](C)[C@@H](O[C@H]2C[C@@](C)(OC)[C@@H](O)[C@H](C)O2)[C@H](C)[C@@H](O[C@@H]2O[C@H](C)C[C@H](N(C)C)[C@H]2O)[C@](C)(O)C[C@@H](C)[C@@H](N2CCCCC2)[C@H](C)[C@@H](O)[C@]1(C)O", 1),
]

Provide the reported MIC of each entry below, same order.
1. CC[C@H]1OC(=O)[C@H](C)[C@@H](O[C@H]2C[C@@](C)(OC)[C@@H](O)[C@H](C)O2)[C@H](C)[C@@H](O[C@@H]2O[C@H](C)C[C@H](N(C)C)[C@H]2O)[C@](C)(O)C[C@@H](C)[C@@H](N2CCC(C)CC2)[C@H](C)[C@@H](O)[C@]1(C)O
2. CC[C@H]1OC(=O)[C@H](C)[C@@H](O[C@H]2C[C@@](C)(OC)[C@@H](O)[C@H](C)O2)[C@H](C)[C@@H](O[C@@H]2O[C@H](C)C[C@H](N(C)C)[C@H]2O)[C@](C)(O)C[C@@H](C)[C@@H](N2CCC(C)(C)CC2)[C@H](C)[C@@H](O)[C@]1(C)O

[1, 1]

Fill in: MIC of `CC[C@H]1OC(=O)[C@H](C)[C@@H](O[C@H]2C[C@@](C)(OC)[C@@H](O)[C@H](C)O2)[C@H](C)[C@@H](O[C@@H]2O[C@H](C)C[C@H](N(C)C)[C@H]2O)[C@](C)(O)C[C@@H](C)[C@@H](N2CCOCC2)[C@H](C)[C@@H](O)[C@]1(C)O` is ___
2

====

Parameter MIC, tested on Haemophilus influenzae ATCC 10211, listed per item.
Express your answer as a number followed by its unit.

# smiles structure, MIC
data = [
    ("CC[C@H]1OC(=O)[C@H](C)[C@@H](O[C@H]2C[C@@](C)(OC)[C@@H](O)[C@H](C)O2)[C@H](C)[C@@H](O[C@@H]2O[C@H](C)C[C@H](N(C)C)[C@H]2O)[C@](C)(O)C[C@@H](C)[C@@H](N2CCC(=O)CC2)[C@H](C)[C@@H](O)[C@]1(C)O", "5 µg/mL"),
]

Now for a further molecule.
Fill in: MIC of `CC[C@H]1OC(=O)[C@H](C)[C@@H](O[C@H]2C[C@@](C)(OC)[C@@H](O)[C@H](C)O2)[C@H](C)[C@@H](O[C@@H]2O[C@H](C)C[C@H](N(C)C)[C@H]2O)[C@](C)(O)C[C@@H](C)[C@@H](N2CCC(OC)(OC)CC2)[C@H](C)[C@@H](O)[C@]1(C)O` is ___
0.5 µg/mL

====

Tested on: Staphylococcus aureus A5177
Assay: In vitro antibacterial activity, agar dilution MIC
Assay type: cell-based
Conditions: S. aureus A5177, Brain Heart Infusion agar, 20-24 hours, read-out: MIC
value kind: MIC (µg/mL)
Answers are plain numbers, in µg/mL.

# smiles structure, MIC [µg/mL]
measured = [
    ("CC[C@H]1OC(=O)[C@H](C)[C@@H](O[C@H]2C[C@@](C)(OC)[C@@H](N)[C@H](C)O2)[C@H](C)[C@@H](O[C@@H]2O[C@H](C)C[C@H](N(C)C)[C@H]2O)[C@](C)(O)C[C@@H](C)[C@@H](N2CCOCC2)[C@H](C)[C@@H](O)[C@]1(C)O", 6.2),
]

Now for a further molecule.
Fill in: MIC of `CC[C@H]1OC(=O)[C@H](C)[C@@H](O[C@H]2C[C@@](C)(OC)[C@@H](N)[C@H](C)O2)[C@H](C)[C@@H](O[C@@H]2O[C@H](C)C[C@H](N(C)C)[C@H]2O)[C@](C)(O)C[C@@H](C)[C@@H](N2CCCCC2)[C@H](C)[C@@H](O)[C@]1(C)O` is ___
6.2

====

Tested on: Staphylococcus aureus CMX 686B
Assay: In vitro antibacterial activity, agar dilution MIC
Type: cell-based
Details: CMX686B, S. aureus CMX 686B, Brain Heart Infusion agar, 20-24 hours, read-out: MIC
value kind: MIC (µg/mL)
One number for each entry, in µg/mL.

# molecule, study system, MIC / µg/mL
data = [
    ("CC[C@H]1OC(=O)[C@H](C)[C@@H](O[C@H]2C[C@@](C)(OC)[C@@H](N)[C@H](C)O2)[C@H](C)[C@@H](O[C@@H]2O[C@H](C)C[C@H](N(C)C)[C@H]2O)[C@](C)(O)C[C@@H](C)[C@@H](N2CCCCC2)[C@H](C)[C@@H](O)[C@]1(C)O [Example 31]", "Staphylococcus aureus CMX 686B", 0.39),
]

Now for a further molecule.
Fill in: MIC of CC[C@H]1OC(=O)[C@H](C)[C@@H](O[C@H]2C[C@@](C)(OC)[C@H](N)[C@H](C)O2)[C@H](C)[C@@H](O[C@@H]2O[C@H](C)C[C@H](N(C)C)[C@H]2O)[C@](C)(O)C[C@@H](C)[C@@H](N2CCCCC2)[C@H](C)[C@@H](O)[C@]1(C)O [Example 32] is ___
0.78

====

Tested on: Haemophilus influenzae SOL AMP R
Test: In vitro antibacterial activity, agar dilution MIC
Format: cell-based
Conditions: H. influenzae SOL AMP R
value kind: MIC
Express your answer as a number followed by its unit.

# compound, study system, MIC
data = [
    ("CC[C@H]1OC(=O)[C@H](C)[C@@H](O[C@H]2C[C@@](C)(OC)[C@@H](O)[C@H](C)O2)[C@H](C)[C@@H](O[C@@H]2O[C@H](C)C[C@H](N(C)C)[C@H]2O)[C@](C)(O)C[C@@H](C)[C@@H](N2CCC(C)CC2)[C@H](C)[C@@H](O)[C@]1(C)O [Example 6]", "Haemophilus influenzae SOL AMP R", "1 µg/mL"),
]

Now for a further compound.
Fill in: MIC of CC[C@H]1OC(=O)[C@H](C)[C@@H](O[C@H]2C[C@@](C)(OC)[C@@H](O)[C@H](C)O2)[C@H](C)[C@@H](O[C@@H]2O[C@H](C)C[C@H](N(C)C)[C@H]2O)[C@](C)(O)C[C@@H](C)[C@@H](N2CCC(C)(C)CC2)[C@H](C)[C@@H](O)[C@]1(C)O [Example 7] is ___
0.5 µg/mL

====

Test system: Staphylococcus aureus A5177
Experiment: In vitro antibacterial activity, agar dilution MIC
Format: cell-based
Conditions: S. aureus A5177, Brain Heart Infusion agar, 20-24 hours, read-out: MIC
value kind: MIC (µg/mL)
Give bare numbers, in µg/mL.

Known MIC results, listed for orientation:
# smiles structure, obs value
data = [
    ("CC[C@H]1OC(=O)[C@H](C)[C@@H](O[C@H]2C[C@@](C)(OC)[C@@H](O)[C@H](C)O2)[C@H](C)[C@@H](O[C@@H]2O[C@H](C)C[C@H](N(C)C)[C@H]2O)[C@](C)(O)C[C@@H](C)[C@@H](N2CCN(C(=O)c3ccccc3)CC2)[C@H](C)[C@@H](O)[C@]1(C)O", 12.5),
    ("CC[C@H]1OC(=O)[C@H](C)[C@@H](O[C@H]2C[C@@](C)(OC)[C@@H](O)[C@H](C)O2)[C@H](C)[C@@H](O[C@@H]2O[C@H](C)C[C@H](N(C)C)[C@H]2O)[C@](C)(O)C[C@@H](C)[C@@H](N2CCOCC2)[C@H](C)[C@@H](O)[C@]1(C)O", 6.2),
    ("CC[C@H]1OC(=O)[C@H](C)[C@@H](O[C@H]2C[C@@](C)(OC)[C@@H](O)[C@H](C)O2)[C@H](C)[C@@H](O[C@@H]2O[C@H](C)C[C@H](N(C)C)[C@H]2O)[C@](C)(O)C[C@@H](C)[C@@H](N2CCC(C)(C)CC2)[C@H](C)[C@@H](O)[C@]1(C)O", 3.1),
]

Now for a further compound.
Fill in: MIC of `CC[C@H]1OC(=O)[C@H](C)[C@@H](O[C@H]2C[C@@](C)(OC)[C@@H](O)[C@H](C)O2)[C@H](C)[C@@H](O[C@@H]2O[C@H](C)C[C@H](N(C)C)[C@H]2O)[C@](C)(O)C[C@@H](C)[C@@H](N2CCC(C)CC2)[C@H](C)[C@@H](O)[C@]1(C)O` is ___
3.1

====

Parameter MIC, tested on Haemophilus influenzae SPK AMP R, listed per item.
Give bare numbers, in µg/mL.

# smiles structure, obs value
records = [
    ("CC[C@H]1OC(=O)[C@H](C)[C@@H](O[C@H]2C[C@@](C)(OC)[C@@H](O)[C@H](C)O2)[C@H](C)[C@@H](O[C@@H]2O[C@H](C)C[C@H](N(C)C)[C@H]2O)[C@](C)(O)C[C@@H](C)[C@@H](N2CCCCC2)[C@H](C)[C@@H](O)[C@]1(C)O", 1),
    ("CC[C@H]1OC(=O)[C@H](C)[C@@H](O[C@H]2C[C@@](C)(OC)[C@@H](O)[C@H](C)O2)[C@H](C)[C@@H](O[C@@H]2O[C@H](C)C[C@H](N(C)C)[C@H]2O)[C@](C)(O)C[C@@H](C)[C@@H](N2CCC(C)CC2)[C@H](C)[C@@H](O)[C@]1(C)O", 1),
    ("CC[C@H]1OC(=O)[C@H](C)[C@@H](O[C@H]2C[C@@](C)(OC)[C@@H](O)[C@H](C)O2)[C@H](C)[C@@H](O[C@@H]2O[C@H](C)C[C@H](N(C)C)[C@H]2O)[C@](C)(O)C[C@@H](C)[C@@H](N2CCC(=O)CC2)[C@H](C)[C@@H](O)[C@]1(C)O", 0.5),
    ("CC[C@H]1OC(=O)[C@H](C)[C@@H](O[C@H]2C[C@@](C)(OC)[C@@H](O)[C@H](C)O2)[C@H](C)[C@@H](O[C@@H]2O[C@H](C)C[C@H](N(C)C)[C@H]2O)[C@](C)(O)C[C@@H](C)[C@@H](N2CCC(OC)(OC)CC2)[C@H](C)[C@@H](O)[C@]1(C)O", 1),
    ("CC[C@H]1OC(=O)[C@H](C)[C@@H](O[C@H]2C[C@@](C)(OC)[C@@H](O)[C@H](C)O2)[C@H](C)[C@@H](O[C@@H]2O[C@H](C)C[C@H](N(C)C)[C@H]2O)[C@](C)(O)C[C@@H](C)[C@@H](N2CCOCC2)[C@H](C)[C@@H](O)[C@]1(C)O", 4),
]

Now for a further compound.
Fill in: MIC of `CC[C@H]1OC(=O)[C@H](C)[C@@H](O[C@H]2C[C@@](C)(OC)[C@@H](O)[C@H](C)O2)[C@H](C)[C@@H](O[C@@H]2O[C@H](C)C[C@H](N(C)C)[C@H]2O)[C@](C)(O)C[C@@H](C)[C@@H](N2CCC(C)(C)CC2)[C@H](C)[C@@H](O)[C@]1(C)O` is ___
1
